// provenance: PubChem BioAssay

target: Pantothenate synthetase (Mycobacterium tuberculosis (strain ATCC 25618 / H37Rv)) (UniProt P9WIL5); test: Coupled enzyme confirmation of inhibitors against recombinant Mtb PanC (AID 375); conditions: coupled enzyme assay; at 10 µM, hits give high values;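 further: 0% = full reaction with vehicle and 100% = no enzyme background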
Sequence (P9WIL5 whole entry, looked up): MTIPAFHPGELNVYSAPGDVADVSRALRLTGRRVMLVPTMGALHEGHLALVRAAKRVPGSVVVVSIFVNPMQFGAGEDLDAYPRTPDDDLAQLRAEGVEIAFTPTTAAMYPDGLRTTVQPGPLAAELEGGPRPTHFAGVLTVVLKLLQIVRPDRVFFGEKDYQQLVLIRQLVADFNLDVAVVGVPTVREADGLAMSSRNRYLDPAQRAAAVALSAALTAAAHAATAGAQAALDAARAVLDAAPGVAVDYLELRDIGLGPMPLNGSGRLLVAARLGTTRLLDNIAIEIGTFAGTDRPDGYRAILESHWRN

molecule	unitSpec	inhibition
CC(C)CCNC(=O)NC(=O)CSc1nnc(-c2ccccc2F)n1N	%	0
COc1ccccc1N1CCN(C/C(O)=C(\C#N)c2nc(-c3ccccc3)cs2)CC1	%	2
O=c1[nH]c2ccccc2n1CCCN1CCC(n2c(=O)[nH]c3cc(Cl)ccc32)CC1	%	0
COc1cccc(NC(=O)N2CCN(C(=O)C(Cc3ccc(OC)c(OC)c3)NC(C)=O)CC2)c1 (stereo not drawn)	%	0
C=CCn1c(C)cc(C(=O)CSc2nc3ccccc3o2)c1C	%	9
CCOc1ccc2c(O)csc2c1	%	0
CN(C)c1nc(N)nc(-c2nc3ccccc3s2)n1	%	0
CCOc1ccc(Cc2nn[nH]n2)cc1	%	1
COC(=O)c1ccc(NC2(C#N)C(=O)Nc3ccccc32)cc1 (stereo not drawn)	%	0
COc1ccc(-c2nnc3ccc(SC(C(C)=O)C(C)=O)nn23)cc1OC	%	2
Cc1cc(NC(=O)c2cc3ccccc3o2)cc(C)c1OCC(=O)N1CCOCC1	%	0
CN(CC(=O)Nc1ccc(F)c(Cl)c1)S(=O)(=O)c1cccc2nsnc12	%	0
CCN(CC)C(=O)CN(c1cc(Cl)ccc1OC)S(C)(=O)=O	%	0
Cc1cc(C)n2nc(S(=O)(=O)N(C)c3ccccc3)nc2n1	%	0
CN1CCN(C2=Nc3cc(Cl)ccc3Nc3ccccc32)CC1	%	8
CCSc1ccccc1C(=O)NCc1ccc(S(N)(=O)=O)cc1	%	0
CCN(CC)S(=O)(=O)c1ccc(S(=O)(=O)N(Cc2ccccn2)Cc2ccco2)cc1	%	11
CSc1nc2c(ccc3ccccc32)o1	%	2
CCOC(=O)N1CCC(c2cc(=O)n3[nH]c(C)c(-c4ccc(F)cc4)c3n2)CC1	%	0
O=c1[nH]c2ccccc2n1C1CCN(CCCC(c2ccc(F)cc2)c2ccc(F)cc2)CC1	%	5
O=C(CN1CCN(C2CCCCC2)CC1)Nc1ccccc1-c1ccccc1	%	6
CCNCc1cc2cc(C)ccc2[nH]c1=O	%	0
N#Cc1ccc(CSc2nnc(-c3cccs3)n2-c2ccccc2)cc1	%	0

* * *

biological target: Pantothenate synthetase (Mycobacterium tuberculosis (strain ATCC 25618 / H37Rv)) (UniProt P9WIL5); assay: Coupled enzyme confirmation of inhibitors against recombinant Mtb PanC (AID 375); conditions: coupled enzyme assay; at 10 µM, hits give high values;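 further: 0% = full reaction with vehicle and 100% = no enzyme background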
Listed here are compounds together with their documented inhibition.

compound	inhibition (%)
COc1ccc(NC(=O)C2Cc3ccccc3C(=O)O2)cc1 (configuration not stated)	0
Cc1ccc2c(c1)CCCN2C(=O)Nc1ccc2c(c1)OCO2	2
O=C(C1CCCN(S(=O)(=O)c2cccnc2)C1)N1CCN(c2ccccn2)CC1 (configuration not stated)	0
CC(=O)Nc1ccc(S(=O)(=O)Nc2nc3n(n2)C(c2ccccc2)CC(=O)N3)cc1 (configuration not stated)	0
CC1(C)CC(=O)C=C(NCCN2CCN(C(=O)Nc3ccccc3)CC2)C1	5
Cc1ccc(-c2cc(C(=O)NCCN3CCOCC3)no2)cc1	3
COC(=O)C(C#N)C(=C1C(=O)CC(C)(C)CC1=O)c1ccc(O)cc1 (configuration not stated)	0
COc1ccc(CN(CC(=O)NCc2ccco2)C(=O)CCC(=O)Nc2nccs2)cc1	0
CCn1c(SCC(=O)N2CCCc3ccccc32)nnc1-c1cccs1	0
COc1ccccc1CN1CCCC(C(=O)N(C)Cc2ccccc2)C1 (configuration not stated)	0
CC(=O)OCC(=O)[C@H]1CC[C@H]2[C@@H]3CC=C4C[C@@H](O)CC[C@]4(C)[C@H]3CC[C@]12C	1
Cc1cc(NS(=O)(=O)c2ccc(NC(=O)C(C)N3C(=O)c4ccccc4C3=O)cc2)nc(C)n1 (configuration not stated)	1
Clc1ccc(OCc2nc(-c3ccccn3)no2)c(Br)c1	0
O=C(Nc1ccc(S(=O)(=O)NC2CCCC2)cc1)c1cnccn1	0
CCOC(=O)N1CCN(C(=O)CSc2nnc(-c3cccc(Cl)c3)o2)CC1	0
COc1ccccc1NC(=O)C1CC(=O)N(c2ccc(F)cc2)C1 (configuration not stated)	0
O=C(Nc1cccc2ccccc12)c1ccc(Br)o1	0
CCOCCc1nnc(NC(=O)c2ccc(OC)c(OC)c2)s1	0
CCC(=O)Oc1ccc(C/C(=N\O)c2ccc(O)cc2O)o1	0
CCCCn1c(O)c(C(C)=NCCc2ccccc2)c(=O)[nH]c1=O	0
CN(CCc1ccccn1)C(=O)CCNC(=O)Cn1cnc2ccccc2c1=O	1
COCCn1c(-c2ccc(OC)c(OC)c2)nc2ccccc21	0

* * *

assay: S. cerevisiae growth inhibition in permissive medium (OD615), pilot counter-assay for S. cerevisiae lifespan shortening project, permissive growth control (AID 705); details: OD615, 24 h, at 10 µM, hits give high values
measuredQuantity: growth inhibition (%)

compound	measuredQuantity	unitSpec	measValue
COc1ccc(C2C(C(=O)N3CCC4(CC3)OCCO4)CC(=O)N2c2ccc(OC)cc2)cc1 (stereo not drawn)	growth inhibition	%	-8.58
CC12CCC(=O)C=C1CCC1C2CCC2(C)C(O)CCC12 (stereo not drawn)	growth inhibition	%	5.38
COc1cc(CN2CC3CC(C2)c2cccc(=O)n2C3)cc(OC)c1OC (stereo not drawn)	growth inhibition	%	-11.8
CN1C(=O)C(Cc2cccs2)C(=O)N(C)C1=O	growth inhibition	%	-5.75
Cc1cc(OCC(=O)NC2CCS(=O)(=O)C2)c2c3c(c(=O)oc2c1)CCC3 (stereo not drawn)	growth inhibition	%	-13.3
CN1CSC(=S)N(C)C1	growth inhibition	%	51.5
O=c1cccc2n1CC1CC2CN(C(c2cccc(F)c2)c2sc3ncnn3c2O)C1 (stereo not drawn)	growth inhibition	%	-2.99
CP(C)(=O)CCC(=O)O	growth inhibition	%	-18
O=c1cccc2n1CC1CC2CN(C(c2ccccc2)c2sc3ncnn3c2O)C1 (stereo not drawn)	growth inhibition	%	4.58
Cc1ccc2c(c1)C1CN(C)CCC1N2C(=O)c1ccco1 (stereo not drawn)	growth inhibition	%	-2.01
COc1cc(CC2C(=O)N(C)C(=O)N(C)C2=O)ccc1OCc1ccccc1	growth inhibition	%	-12.6
c1ccc2sc(C3CCCNC3)nc2c1 (stereo not drawn)	growth inhibition	%	-10.6
CC1(C)Cc2c(sc3c2C(=O)NC(c2cccnc2)N3)CO1 (stereo not drawn)	growth inhibition	%	-16.3
Cc1ccc(-n2nc(C)c3c2NC(=O)CSC3c2ccc3c(c2)OCO3)cc1 (stereo not drawn)	growth inhibition	%	-3.05
O=C(C(Cc1ccccc1)NS(=O)(=O)c1ccc(F)cc1)N1CCC2(CC1)OCCO2 (stereo not drawn)	growth inhibition	%	-6.55
COc1ccc(CC2C(=O)NC(=O)N(c3ccccc3)C2=O)c(OC)c1 (stereo not drawn)	growth inhibition	%	-13.5
O=C1CC(N2CC=C(c3ccccc3)CC2)C(=O)N1c1ccc(F)cc1 (stereo not drawn)	growth inhibition	%	-7.4
CC12CN3CC(C)(CN(C1)C3c1cccnc1)C2=O (stereo not drawn)	growth inhibition	%	-9.24
COC(=NC1CCCC1)C(O)c1c[nH]c2ccccc12 (stereo not drawn)	growth inhibition	%	-12.2
Cc1nc2cc(C(F)(F)F)ccc2n1C1CCN(Cc2nnnn2Cc2cccs2)CC1	growth inhibition	%	-11.3
COc1ccc2nc(NC(=O)CCc3nc(C4=CCN(C)CC4)no3)sc2c1	growth inhibition	%	-7.66
CC1(C)CC(n2[nH]c(=O)c3c2NC(=O)CSC3c2ccc(F)cc2)CCO1 (stereo not drawn)	growth inhibition	%	-12.3
CC(C)NS(=O)(=O)c1ccc(OCC(=O)N2CCN(C)CC2)cc1	growth inhibition	%	-11.8

* * *

target: Pantothenate synthetase (Mycobacterium tuberculosis (strain ATCC 25618 / H37Rv)); test: Coupled enzyme confirmation of inhibitors against recombinant Mtb PanC (AID 375); conditions: coupled enzyme assay; at 10 µM, hits give high values;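 further: 0% = full reaction with vehicle and 100% = no enzyme background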
measuredQuantity: inhibition (%)

1) Cc1ccc(S(=O)(=O)N(CC(=O)N2CCOCC2)CC(=O)N2CCOCC2)cc1 0
2) COc1ccc(Nc2nc(OC)nc(N3CCN(c4ccc(OC)cc4)CC3)n2)cc1 1
3) O=C(Oc1ccc2ccc(OC(=O)N3CCOCC3)cc2c1)N1CCOCC1 0
4) Cn1cccc1Cc1nnc(SCC(=O)Nc2ccc(F)cc2)n1-c1ccc(F)cc1 4
5) COc1cc(S(=O)(=O)N2CCOCC2)ccc1NC(=O)COC(=O)c1ccccn1 0

* * *

assay: MRP1 drug-resistance reversers in H69AR cells – cell-based, doxorubicin co-treatment, pilot screen (AID 601); details: H69AR cells + 2 uM doxorubicin, CellTiter-Glo, 72 h; at 10 µM; hits give high values

compound	differential viability (reversal) (%)
O=C(c1cccs1)C1CN2CCC1CC2 (configuration not stated)	13.5
COC(=O)c1c(C)n(Cc2ccc3c(c2)OCO3)c2ccc(O)cc12	5.33
CC(=NCCCO)c1c(O)n(Cc2ccccc2)c(=O)[nH]c1=O	4.15
CCOCC(=O)NC1CCSC1=O (configuration not stated)	0.265
Cc1nc2ccccc2c(=O)n1-c1ccc(F)cc1	11.5
CCCNS(=O)(=O)c1ccc(OCC(=O)N2CCN(Cc3ccccc3)CC2)cc1	0.375
CN(C)CCc1nc2ccccc2c(=O)n1-c1ccccc1	-1.03
Cc1ccc(C)c(C2(O)CC(C)N(C)CC2C)c1 (configuration not stated)	10.4
CCCCn1c(O)c(C(C)=NC(Cc2c[nH]c3ccccc23)C(=O)OC)c(=O)[nH]c1=O (configuration not stated)	2.8
CC(C)OC(=O)c1c(N)n(CC2CCCO2)c2nc3ccccc3nc12 (configuration not stated)	4.96
O=C(C(Cc1ccccc1)NS(=O)(=O)c1ccc(F)cc1)N1CCC2(CC1)OCCO2 (configuration not stated)	15.6
CCCCNC(=O)c1c(N)n(CCCOC)c2nc3ccccc3nc12	-25.4
